- System: development of xL3s to L4s of H. contortus
- test-name: L4 development assay (xL3 to L4)
- Format: cell-based
- condition-parameters: Haemonchus contortus, 168 h, read-out: L4 development (IC50s in μM)
readout: IC50 (µM)
I only need the number, in µM, no unit after it.

*Q* For Oc1ccc(-c2ccc(-c3ccc(O)cc3Cl)[se]2)c(Cl)c1 [WZY-2] , what is its reported IC50?
*A* 12.2
